run_description: viability gain of MRP-1-high H69AR cells under doxorubicin, pilot screen, MRP-1 activator project, CellTiter-Glo, duplicate (AID 807);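 further: compound pretreatment 18-22 h then 72 h combined with doxorubicin; 0% = doxorubicin alone and 100% = vehicle without doxorubicin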
study_conditions: H69AR viability with doxorubicin, CellTiter-Glo luminescence; at 10 µM; stronger effect = higher value

# compound, output_unit, viability increase
data = [
    ("C=C(C)CC1N(c2cccc(OC)c2)C(=O)C2C(C(=O)O)C3C=CC21O3 (stereo not drawn)", "%", -1.04),
    ("CN(C)CCCNC(=O)CC(c1ccc(F)cc1)c1ccco1 (stereo not drawn)", "%", -2.97),
    ("Fc1cccc(Cl)c1CSc1ncn[nH]1", "%", 0.29),
    ("CS(=O)(=O)N(CC(=O)N1CCCCCC1)c1cccc(Br)c1", "%", -2.75),
    ("O=C(O)C1CC=CCC1C(=O)NCc1cn2ccccc2n1 (stereo not drawn)", "%", -2.16),
    ("COc1ccc(C2C(C#N)=C(N)Oc3n[nH]c(C)c32)cc1Cn1nnc2ccccc21 (stereo not drawn)", "%", -5.95),
    ("O=S(=O)(NCCOCCNS(=O)(=O)c1ccccc1)c1ccccc1", "%", 0.8),
    ("Cc1cccc(NC(=O)c2ccccc2Br)n1", "%", -3.61),
    ("CC1(C)CC(=O)C(C=NC2CC(C)(C)NC(C)(C)C2)=C(O)C1", "%", 0.22),
    ("CC(=O)Nc1ccc(S(=O)(=O)Nc2cccc(C(=O)NC(C)(C)C)c2)cc1", "%", -1.14),
    ("CN1CCN(C(=O)c2c(NC(=O)c3ccco3)sc3c2CCC(C(C)(C)C)C3)CC1 (stereo not drawn)", "%", -2.04),
    ("CCCc1cc(C(=O)N(C2CCCCC2)C2CCCCC2)no1", "%", -5.51),
    ("CCCCCn1c(NCc2ccco2)nc2ccccc21", "%", -5.56),
    ("Cc1ccc(-c2nc(CS(=O)CC(=O)NCCC(C)C)c(C)o2)cc1 (stereo not drawn)", "%", -0.71),
    ("COc1ccccc1C1(CC(=O)O)CCOC(C)(C)C1 (stereo not drawn)", "%", -1.61),
    ("NC(=O)c1ccsc1NC(=O)C1CC1", "%", -2.38),
    ("O=C(CN1C(=O)c2ccccc2S1(=O)=O)N1CCN(c2ccccc2F)CC1", "%", -3.37),
    ("N#CC1=C2SCN(Cc3ccco3)CN2C(=O)CC1c1c(F)cccc1Cl (stereo not drawn)", "%", -4.91),
    ("Cc1ccc(N(CC(=O)Nc2ccc(S(=O)(=O)N3CCOCC3)cc2)S(C)(=O)=O)cc1C", "%", -4.96),
    ("O=C(O)c1cc2c(s1)-c1ccccc1OC2", "%", -4.32),
    ("Cc1ccc(CSc2nc3c(c(=O)[nH]c(=O)n3C)n2CCC(C)C)cc1", "%", -7.6),
    ("C=CCn1c(SCC(=C)C)nc2c1c(=O)[nH]c(=O)n2C", "%", -0.41),
    ("COc1ccc(OC)c(NC(=O)c2ccc(CN3CCOCC3)cc2)c1", "%", 0.88),
]

----------
// reported viability per item
run_description: reversal of MRP1-mediated doxorubicin resistance, pilot screen, H69AR cells, doxorubicin co-treatment (AID 601)
study_conditions: H69AR cells + 2 uM doxorubicin, CellTiter-Glo, 72 h; measured here: viability with 2 uM doxorubicin; at 10 µM; stronger effect = lower value
Peptide text beside a SMILES is read from it. * marks the point of attachment. Boc = CC(C)(C)OC(=O)*

# compound, viability / %
data = [
    ("Cc1csc2nc(CNC(=O)c3ccco3)cn12", 98.5),
    ("Cc1ccc(S(=O)(=O)N(CC(=O)NCc2ccco2)Cc2ccccc2F)cc1", 85.5),
    ("Cc1ccc(C(=O)OCC(=O)c2ccc(Cl)s2)s1", 90.8),
    ("COc1ccc(CNC(=O)c2cc3c(=O)n4ccccc4nc3n(Cc3ccco3)c2=N)cc1", 76.9),
    ("Cc1sc2ncnc(OCC(=O)N3CCN(S(=O)(=O)c4ccccc4)CC3)c2c1C", 80.7),
    ("CC(C(=O)OCn1nnc2ccccc2c1=O)N1C(=O)c2ccccc2C1=O (configuration not stated)", 108),
    ("CCN(C(=O)Cc1c(C(=O)O)[nH]c2ccccc12)c1cc(OC)ccc1OC", 95.3),
    ("Cc1cc(C)nc(NS(=O)(=O)c2ccc(N)cc2)n1", 79.4),
    ("Cc1ccc2cc3cc(C(=O)N4CC(C)CC(C)C4)oc3nc2c1 (configuration not stated)", 85.5),
    ("COC(=O)c1ccccc1NC(=O)C1CC(=O)N(c2ccc(F)cc2)C1 (configuration not stated)", 80.6),
    ("C=CCOC(=O)C1=C(C)OC(N)=C(C#N)C1c1ccc2c(c1)OCO2 (configuration not stated)", 86.9),
    ("CCn1nnnc1SCC(=O)Nc1nnc(C(C)C)s1", 89.8),
    ("CCOC(=O)Cc1c(C)c2c(O)cc(O)cc2oc1=O", 86.8),
    ("Cc1sc(NC(=O)CSc2nnc(COc3ccccc3)n2C)c(C#N)c1C", 73.3),
    ("O=C(CSc1nnc(Cc2ccccc2)n1C1CCCCC1)N1CCOCC1", 89.2),
    ("COc1ccc(-n2c(=O)[nH]cc(C(=O)Nc3ccc(NC(C)=O)cc3)c2=O)cc1", 95.7),
    ("CCC(Sc1nc(-c2ccccc2)c(C#N)c(=O)[nH]1)C(=O)Nc1cc(C)on1 (configuration not stated)", 101),
    ("C=CCNS(=O)(=O)c1ccc2nsnc2c1", 102),
    ("NC(=O)NC(=O)CSc1cccc(C(F)(F)F)c1", 87.2),
    ("COc1cc(OC)c(NC(=O)c2ccco2)cc1Cl", 96.9),
    ("COC(=O)c1ccccc1NC(=O)Cn1ccnc1", 101),
    ("COC(=O)n1c(=S)oc2cc(Cl)ccc21", 89.6),
    ("CCCCOc1ccc(-c2nnc(N)s2)cc1", 85.9),
    ("CCCCOCCCNC(=O)c1cccs1", 92.5),
    ("CCOc1cc(-c2nc(-c3ccc(C)nc3OCC)no2)cc(OCC)c1OCC", 98),
    ("CC(C)(C)OC(=O)N1CCCC1C(=O)NC(Cc1ccccc1)C(=O)O (stereo not drawn) (Boc-Pro-Phe-OH; configuration not given here)", 95.2),
    ("CC(NC(=O)COc1ccc(Br)cc1)C(=O)O (configuration not stated)", 87.6),
    ("CC(C)CNC(=O)C1CC(=O)OC12CCCCC2 (configuration not stated)", 90.5),
    ("O=c1cc(-c2ccccc2)[nH]c2nc3ccccc3n12", 58.8),
    ("Cc1oc(-c2ccccc2F)nc1CS(=O)(=O)CC(=O)NCCCN1CCc2ccccc2C1", 89.1),
    ("Cn1c(SCc2cccc3ccccc23)nnc1-c1ccco1", 84.5),
    ("O=C(C1CC1(c1ccccc1)c1ccccc1)N1CCOCC1 (configuration not stated)", 87.3),
    ("COC(=O)Nc1nnc(CCc2ccccc2)s1", 80.3),
    ("COC(=O)CCC(=O)Nc1cccc(Br)c1", 100),
    ("COc1ccccc1-c1nc2n(n1)C(c1cccs1)C(C(=O)Nc1cccnc1)=C(C)N2 (configuration not stated)", 87),
    ("Cc1cnc(-c2nnc(N(C)C(=O)C3CCOC3)s2)cn1 (configuration not stated)", 84.4),
    ("O=C(CSc1nnc(CNC(=O)c2cccs2)o1)Nc1cccc(C(F)(F)F)c1", 90.9),
    ("Cn1c(C(=O)N2CCCC(C(=O)NCCCc3ccccc3)C2)cc2sccc21 (configuration not stated)", 98.7),
    ("O=C(NCc1ccco1)C1(S(=O)(=O)c2ccc(Cl)cc2)CC1", 92.8),
    ("COC(=O)COc1nc(C)c(Br)c(OC)n1", 90),
    ("NCC(O)COc1ccc2c(c1)OCO2 (configuration not stated)", 97),
    ("CC(C)CCNC(=O)CCNS(=O)(=O)c1ccc(Cl)cc1", 94.4),
    ("COc1cccc(CNC(=O)C2CCN(c3cnccn3)CC2)c1", 87.3),
    ("O=C1CC(c2cccs2)CC2=C1C(c1ccccc1)n1ncnc1N2 (configuration not stated)", 99.2),
    ("C[N+]12CCC(CC1)C(OC(=O)C(O)(c1ccccc1)c1ccccc1)C2 (configuration not stated)", 78.7),
    ("Cc1noc(C)c1COC(=O)c1ccccc1Oc1ccccc1", 69.8),
    ("COc1ccc(OC)c(C(=O)c2coc3ccc(O)c(CN4CCOCC4)c23)c1", 94.1),
]
